Known pIC50 of a selection of compounds
- Tested on: HCT-116
- protocolDescription: Antiproliferative activity against human HCT116 cells
- Format: functional, cell-based
pIC50: −log10 of the molar value.

[
  {
    "compoundStructure": "CNc1cc(-c2ccc3cnn(Cc4ccc(F)c(F)c4)c3c2)cn(C)c1=O",
    "studySystem": "HCT-116",
    "pIC50": 5.52
  },
  {
    "compoundStructure": "CNc1cc(-c2ccc3cnn(Cc4cc(OC)cc(OC)c4)c3c2)cn(C)c1=O",
    "studySystem": "HCT-116",
    "pIC50": 5.54
  },
  {
    "compoundStructure": "CNc1cc(-c2ccc3cnn(Cc4ccc(F)c([N+](=O)[O-])c4)c3c2)cn(C)c1=O",
    "studySystem": "HCT-116",
    "pIC50": 5.59
  },
  {
    "compoundStructure": "Cc1sc2c(c1C)C(c1ccc(Cl)cc1)=N[C@@H](CC(=O)OC(C)(C)C)c1nnc(C)n1-2",
    "studySystem": "HCT-116",
    "pIC50": 6.40
  }
]

====

- studySystem: Bromodomain-containing protein 4 (Homo sapiens, UniProt O60885)
- protocolDescription: Inhibition of BRD4 (unknown origin) at 1 uM relative to control
measurementType: inhibition

[
  {
    "compound": "COc1ccc(Cn2nc(Nc3ccc(F)cc3)c3ccc(-c4c(C)noc4C)cc32)cc1",
    "measurementType": "inhibition",
    "measuredValue": "< 20%"
  },
  {
    "compound": "COc1ccc(CN2CC(c3ccc(O)cc3)c3cnc(-c4c(C)noc4C)nc32)cc1 (configuration not stated)",
    "measurementType": "inhibition",
    "measuredValue": "< 20%"
  },
  {
    "compound": "COc1ccc(C)c(C2CN(Cc3ccc(F)cc3)c3nc(-c4c(C)noc4C)ncc32)c1 (configuration not stated)",
    "measurementType": "inhibition",
    "measuredValue": "< 20%"
  },
  {
    "compound": "Cc1noc(C)c1-c1ccc2c(c1)c(Nc1ccc(F)cc1)nn2C1CCCCO1 (configuration not stated)",
    "measurementType": "inhibition",
    "measuredValue": "< 20%"
  },
  {
    "compound": "COc1cc2cnn(Cc3ccc(F)cc3)c2cc1-c1c(C)noc1C",
    "measurementType": "inhibition",
    "measuredValue": "45%"
  },
  {
    "compound": "COc1ccc(Cn2nc(Nc3cccc(C(C)C)c3)c3ccc(-c4c(C)noc4C)cc32)cc1",
    "measurementType": "inhibition",
    "measuredValue": "< 20%"
  },
  {
    "compound": "Cc1ccc(Cn2nc(Nc3ccc(C(F)(F)F)cc3)c3ccc(-c4c(C)noc4C)cc32)cc1",
    "measurementType": "inhibition",
    "measuredValue": "< 20%"
  }
]

====

- Test system: BT-474
- protocolDescription: Antiproliferative activity against human BT474 cells
- Type: functional, cell-based
The entries below are paired with their reported IC50.

[
  {
    "compoundStructure": "CNc1cc(-c2ccc3cnn(Cc4ccc(F)c([N+](=O)[O-])c4)c3c2)cn(C)c1=O",
    "IC50": "6.5 µM"
  },
  {
    "compoundStructure": "CNc1cc(-c2ccc3cnn(Cc4ccc(F)c(F)c4)c3c2)cn(C)c1=O",
    "IC50": "8.8 µM"
  },
  {
    "compoundStructure": "CNc1cc(-c2ccc3cnn(Cc4cc(OC)cc(OC)c4)c3c2)cn(C)c1=O",
    "IC50": "8.6 µM"
  },
  {
    "compoundStructure": "Cc1sc2c(c1C)C(c1ccc(Cl)cc1)=N[C@@H](CC(=O)OC(C)(C)C)c1nnc(C)n1-2",
    "IC50": "1.7 µM"
  }
]

====

- studySystem: Bromodomain-containing protein 4 (Homo sapiens)
- protocolDescription: Inhibition of BRD4 bromodomain 1/2 (unknown origin) by alphascreen assay
measurementType: IC50 (µM)

[
  {
    "compoundStructure": "CCNc1cc(-c2ccc3cnn(Cc4ccc(F)cc4)c3c2)cn(C)c1=O",
    "measuredValue": 2.25
  },
  {
    "compoundStructure": "CNc1cc(-c2ccc3cnn(Cc4ccc(C(F)(F)F)cc4)c3c2)cn(C)c1=O",
    "measuredValue": 2.4
  },
  {
    "compoundStructure": "CNc1cc(-c2ccc3cnn(Cc4ccc(F)cc4)c3c2)cn(C)c1=O",
    "measuredValue": 1.4
  },
  {
    "compoundStructure": "CCOC(=O)Cn1ncc2ccc(-c3cc(NC)c(=O)n(C)c3)cc21",
    "measuredValue": 1.9
  },
  {
    "compoundStructure": "CNc1cc(-c2ccc3cnn(Cc4ccc(C)cc4)c3c2)cn(C)c1=O",
    "measuredValue": 1.6
  },
  {
    "compoundStructure": "CNc1cc(-c2ccc3cnn(Cc4ccc(F)c([N+](=O)[O-])c4)c3c2)cn(C)c1=O",
    "measuredValue": 0.8
  },
  {
    "compoundStructure": "CNc1cc(-c2ccc3cnn(Cc4ccc(OC)c(F)c4)c3c2)cn(C)c1=O",
    "measuredValue": 1.4
  },
  {
    "compoundStructure": "CNc1cc(-c2ccc3cnn(Cc4ccc(F)c(F)c4)c3c2)cn(C)c1=O",
    "measuredValue": 0.86
  },
  {
    "compoundStructure": "CCNc1cc(-c2ccc3cnn(Cc4cc(OC)cc(OC)c4)c3c2)cn(C)c1=O",
    "measuredValue": 1.81
  },
  {
    "compoundStructure": "CNc1cc(-c2ccc3cnn(CC4CC4)c3c2)cn(C)c1=O",
    "measuredValue": 1.96
  },
  {
    "compoundStructure": "CNc1cc(-c2ccc3cnn(Cc4ccc(OC)cc4)c3c2)cn(C)c1=O",
    "measuredValue": 1.6
  },
  {
    "compoundStructure": "CNc1cc(-c2ccc3cnn(CC4CCCCC4)c3c2)cn(C)c1=O",
    "measuredValue": 1.81
  },
  {
    "compoundStructure": "CNc1cc(-c2ccc3cnn(Cc4cc(OC)cc(OC)c4)c3c2)cn(C)c1=O",
    "measuredValue": 0.55
  }
]

====

# pIC50 annotations
- Test system: MV4-11
- protocolDescription: Antiproliferative activity against human MV4-11 cells assessed as reduction in cell viability incubated for 72 hrs by CellTiter-Glo luminescent cell viability assay
- Type: functional, cell-based
- conditionsUsed: MV4-11, 72 h
pIC50: −log10 of the molar value.
measurementType: pIC50

[
  {
    "molecule": "COc1cc(Nc2nn(C3CCCCO3)c3cc(-c4c(C)noc4C)ccc23)ccc1F (stereo unspecified)",
    "measuredValue": 5.03
  },
  {
    "molecule": "COc1ccc(Nc2nn(Cc3ccc(C)cc3)c3cc(-c4c(C)noc4C)ccc23)cc1",
    "measuredValue": 4.92
  },
  {
    "molecule": "CNc1cc(-c2ccc3cnn(CC4CC4)c3c2)cn(C)c1=O",
    "measuredValue": 5.46
  },
  {
    "molecule": "CNc1cc(-c2ccc3cnn(Cc4ccc(OC)cc4)c3c2)cn(C)c1=O",
    "measuredValue": 5.57
  },
  {
    "molecule": "COc1cc(F)ccc1Nc1nn(C2CCCCO2)c2cc(-c3c(C)noc3C)ccc12 (stereo unspecified)",
    "measuredValue": 5.07
  },
  {
    "molecule": "Cc1noc(C)c1-c1ccc2c(Nc3ccc(F)cc3)n[nH]c2c1",
    "measuredValue": 5.11
  },
  {
    "molecule": "Cc1noc(C)c1-c1ccc2c(Nc3ccc(F)cc3)nn(C3CCCCO3)c2c1 (stereo unspecified)",
    "measuredValue": 5.00
  },
  {
    "molecule": "CNc1cc(-c2ccc3cnn(Cc4ccc(F)c([N+](=O)[O-])c4)c3c2)cn(C)c1=O",
    "measuredValue": 6.89
  },
  {
    "molecule": "Cc1ccc(Cn2nc(Nc3ccc(C#N)cc3)c3ccc(-c4c(C)noc4C)cc32)cc1",
    "measuredValue": 5.24
  },
  {
    "molecule": "COc1ccc(Cn2nc(Nc3cccc(C(C)C)c3)c3ccc(-c4c(C)noc4C)cc32)cc1",
    "measuredValue": 5.09
  },
  {
    "molecule": "CCNc1cc(-c2ccc3cnn(Cc4ccc(F)cc4)c3c2)cn(C)c1=O",
    "measuredValue": 5.25
  },
  {
    "molecule": "CNc1cc(-c2ccc3cnn(Cc4ccc(C)cc4)c3c2)cn(C)c1=O",
    "measuredValue": 5.48
  },
  {
    "molecule": "CNc1cc(-c2ccc3cnn(Cc4ccc(F)cc4)c3c2)cn(C)c1=O",
    "measuredValue": 5.62
  },
  {
    "molecule": "COc1cc2cnn(Cc3ccc(F)cc3)c2cc1-c1c(C)noc1C",
    "measuredValue": 5.72
  },
  {
    "molecule": "CNc1cc(-c2ccc3cnn(Cc4ccc(C(F)(F)F)cc4)c3c2)cn(C)c1=O",
    "measuredValue": 5.36
  },
  {
    "molecule": "COc1cc(F)ccc1Nc1nn(C2CCCCO2)c2ccc(-c3c(C)noc3C)cc12 (stereo unspecified)",
    "measuredValue": 4.76
  },
  {
    "molecule": "Cc1noc(C)c1-c1ccc(-n2ncc3ccc(-c4c(C)noc4C)cc32)c(Cl)c1",
    "measuredValue": 5.55
  },
  {
    "molecule": "CCNc1cc(-c2ccc3cnn(Cc4cc(OC)cc(OC)c4)c3c2)cn(C)c1=O",
    "measuredValue": 5.59
  },
  {
    "molecule": "CNc1cc(-c2ccc3cnn(Cc4ccc(F)c(F)c4)c3c2)cn(C)c1=O",
    "measuredValue": 6.49
  },
  {
    "molecule": "Cc1noc(C)c1-c1ccc2c(Nc3ccc(Cl)cc3)nn(C3CCCCO3)c2c1 (stereo unspecified)",
    "measuredValue": 5.13
  },
  {
    "molecule": "CNc1cc(-c2ccc3cnn(Cc4ccc(OC)c(F)c4)c3c2)cn(C)c1=O",
    "measuredValue": 5.30
  },
  {
    "molecule": "COc1ccc(Cn2nc(Nc3ccc(F)cc3)c3ccc(-c4c(C)noc4C)cc32)cc1",
    "measuredValue": 5.04
  },
  {
    "molecule": "CCOC(=O)Cn1ncc2ccc(-c3cc(NC)c(=O)n(C)c3)cc21",
    "measuredValue": 5.06
  },
  {
    "molecule": "CNc1cc(-c2ccc3cnn(CC4CCCCC4)c3c2)cn(C)c1=O",
    "measuredValue": 5.57
  }
]
